test: in vitro; settings: human
measurementName: EC50 at 2 h

- CC(C)(O)c1cn(CCCCOc2c(-c3ccc(O)c(O)c3)oc3cc(O)cc(O)c3c2=O)nn1 [IVd]: > 50 µM

----------
target: eqBuChE (Equus caballus); construct: equine serum butyrylcholinesterase (eqBuChE); purchased Sigma-Aldrich (lyophilized powder, 10.9 U/mg); host or cells: equine serum; experiment: Ellman cholinesterase inhibitory assay, eqBuChE (screening and IC50); assay type: biochemical; settings: compound 100 µM; substrate 3 mM
measurementName: inhibition at 100 µM (%)

- CC(C)(O)c1cn(CCCCOc2c(-c3ccc(O)c(O)c3)oc3cc(O)cc(O)c3c2=O)nn1: 56.6
- Cc1ccc(C(C)C)c(OCc2cn(CCCCOc3c(-c4ccc(O)c(O)c4)oc4cc(O)cc(O)c4c3=O)nn2)c1: 63.4
- O=c1c(OCCCCn2cc(-c3ccccc3)nn2)c(-c2ccc(O)c(O)c2)oc2cc(O)cc(O)c12: 82.8
- COc1cc(OC)c2c(=O)c(OCc3cn(Cc4cccc(Cl)c4)nn3)c(-c3ccc(OC)c(OC)c3)oc2c1: 63.3

----------
target: eqBuChE (Equus caballus, UniProt P81908); construct: equine serum butyrylcholinesterase (eqBuChE); purchased Sigma-Aldrich (lyophilized powder, 10.9 U/mg); host or cells: equine serum; assay: Ellman cholinesterase inhibitory assay, eqBuChE (screening and IC50); type: biochemical; details: compound 100 µM; substrate 3 mM
Sequence (P81908 whole entry): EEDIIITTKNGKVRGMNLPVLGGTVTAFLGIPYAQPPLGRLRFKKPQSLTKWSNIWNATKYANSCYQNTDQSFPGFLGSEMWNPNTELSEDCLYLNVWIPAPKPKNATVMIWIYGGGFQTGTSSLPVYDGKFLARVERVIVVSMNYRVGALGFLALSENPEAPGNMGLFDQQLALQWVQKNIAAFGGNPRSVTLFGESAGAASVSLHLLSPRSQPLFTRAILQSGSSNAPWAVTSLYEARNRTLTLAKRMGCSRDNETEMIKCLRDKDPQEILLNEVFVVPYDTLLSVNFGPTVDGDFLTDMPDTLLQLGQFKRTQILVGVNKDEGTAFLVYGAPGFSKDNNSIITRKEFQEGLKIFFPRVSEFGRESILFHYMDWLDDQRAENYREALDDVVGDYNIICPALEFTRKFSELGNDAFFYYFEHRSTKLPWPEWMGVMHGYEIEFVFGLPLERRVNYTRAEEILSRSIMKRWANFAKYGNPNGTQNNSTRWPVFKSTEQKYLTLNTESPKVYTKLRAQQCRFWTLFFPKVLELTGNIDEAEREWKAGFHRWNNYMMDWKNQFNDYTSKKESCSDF
Examples of compounds with documented inhibition at 100 µM follow.
measurementName: inhibition at 100 µM (%)

* COc1cc(OC)c2c(=O)c(OCCCCn3cc(C(C)(C)N)nn3)c(-c3ccc(OC)c(OC)c3)oc2c1 | 74.4
* COc1cc(OC)c2c(=O)c(OCCCCn3cc(CN4C(=O)C(=O)c5ccccc54)nn3)c(-c3ccc(OC)c(OC)c3)oc2c1 | 100
* O=c1c(OCCCCn2cc(-c3ccccc3)nn2)c(-c2ccc(OCc3ccccc3)c(OCc3ccccc3)c2)oc2cc(OCc3ccccc3)cc(OCc3ccccc3)c12 | 46.9
